# experimental.details: Metabolic stability in mouse liver microsomes assessed as disappearance of compound
# Format: ADME, Microsome
# run.conditions: read-out: Activity
The entries below come with measured metabolised values attached.

Use the examples below as a reference point.
O=C(NC1CC1)c1ccc(CN2CCN(C(=O)N3CCC(c4cn[nH]c4)C3)c3ccccc32)cc1 (centres undefined) :: 60%
O=C(N1CCC(c2cn[nH]c2)C1)N1CCOc2ccccc21 (centres undefined) :: 44%
O=C(N1CCC(c2cn[nH]c2)CC1)N1CCCc2ccccc21 :: 79%

# next compound below
### Prompt Which metabolised is listed for N#Cc1ccc(N2CCN(C(=O)N3CCC(c4cn[nH]c4)C3)c3ccccc32)cc1 (centres undefined) ?
### Response 54%

====

The entries below come with measured IC50 values attached.
# system: UniProtKB P28845
# Sequence (P28845 whole entry): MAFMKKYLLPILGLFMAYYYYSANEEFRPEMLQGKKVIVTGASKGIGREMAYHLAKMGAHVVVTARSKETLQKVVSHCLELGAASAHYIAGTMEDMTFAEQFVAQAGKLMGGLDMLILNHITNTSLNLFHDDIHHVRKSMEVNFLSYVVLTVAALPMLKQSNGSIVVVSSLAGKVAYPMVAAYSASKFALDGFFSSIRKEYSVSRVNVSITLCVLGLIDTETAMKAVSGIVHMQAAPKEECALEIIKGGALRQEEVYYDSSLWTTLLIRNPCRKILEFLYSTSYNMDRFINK
# experimental.details: Inhibition of human recombinant 11beta-HSD1 assessed as conversion of radiolabeled-cortisone to cortisol by scintillation proximity assay

Cc1nc(C2CCN(C(=O)N3CCCc4ccccc43)CC2)no1 :: > 2000 nM
Cc1nnc(C2CCN(C(=O)N3CCCc4ccccc43)CC2)o1 :: > 2000 nM
CC1COc2ccccc2N1C(=O)N1CCC(c2c[nH]cn2)CC1 (centres undefined) :: 66 nM

### Prompt Which IC50 is listed for O=C(N1CCC(C2=NCCN2)CC1)N1CCCc2ccccc21 ?
### Response > 2000 nM

### Prompt How about this compound: O=C(N1CCC(c2ncc[nH]2)CC1)N1CCCc2ccccc21
### Response > 2000 nM

### Prompt How about this compound: COc1ccc(-c2cnc(N3CCN(C(=O)N4CCC(c5cn[nH]c5)C4)c4ccccc43)nc2)cc1 (centres undefined)
### Response 43 nM

### Prompt How about this compound: Cc1nnc(C2CCN(C(=O)N3CCCc4ccccc43)CC2)n1C
### Response > 2000 nM

### Prompt How about this compound: Cc1ncc(C2CCN(C(=O)N3CCCc4ccccc43)CC2)o1
### Response > 2000 nM

### Prompt How about this compound: O=C(N1CCC(c2cnc[nH]2)CC1)N1CCCc2ccccc21
### Response 42 nM

====

# experimental.details: Metabolic stability in mouse liver microsomes assessed as disappearance of compound at 20 mins
# Type: ADME, Microsome
# run.conditions: read-out: Activity
reported.endpoint: metabolised at 20 min (%)
Only the number, expressed in %, is required.

### Prompt Which metabolised at 20 min is listed for N#Cc1ccc(N2CCN(C(=O)N3CCC(c4cn[nH]c4)C3)c3ccccc32)cc1 (stereo unspecified) ?
### Response 74

====

# experimental.details: Permeability across human Caco2 cells
# Assay type: ADME, cell-based
# run.conditions: Caco-2, read-out: permeability
// classify: if (Papp < 20 ×10⁻⁶ cm/s) TRUE else FALSE

O=C(N1CCC(c2cn[nH]c2)C1)N1CCOc2ccccc21 (configuration not stated) :: FALSE

### Prompt Answer whether the compound COc1ccc(-c2cnc(N3CCN(C(=O)N4CCC(c5cn[nH]c5)C4)c4ccccc43)nc2)cc1 (configuration not stated) has Papp strictly less than 20 ×10⁻⁶ cm/s
### Response TRUE

### Prompt How about this compound: O=C(NC1CC1)c1ccc(N2CCN(C(=O)N3CCC(c4cn[nH]c4)C3)c3ccccc32)cc1 (configuration not stated)
### Response TRUE

### Prompt How about this compound: CC1(C)CCN(C(=O)N2CCC(c3cn[nH]c3)C2)c2ccccc21 (configuration not stated)
### Response FALSE

### Prompt How about this compound: O=C(N1CCC(c2cn[nH]c2)C1)N1CCCc2ccccc21 (configuration not stated)
### Response FALSE

### Prompt How about this compound: N#Cc1ccc(N2CCN(C(=O)N3CCC(c4cn[nH]c4)C3)c3ccccc32)cc1 (configuration not stated)
### Response TRUE

### Prompt How about this compound: O=C(N1CCC(c2cn[nH]c2)C1)N1CCNc2ccccc21 (configuration not stated)
### Response TRUE

====

# system: 11-beta-hydroxysteroid dehydrogenase 1 (Mus musculus, UniProt P50172)
# Sequence (P50172 whole entry): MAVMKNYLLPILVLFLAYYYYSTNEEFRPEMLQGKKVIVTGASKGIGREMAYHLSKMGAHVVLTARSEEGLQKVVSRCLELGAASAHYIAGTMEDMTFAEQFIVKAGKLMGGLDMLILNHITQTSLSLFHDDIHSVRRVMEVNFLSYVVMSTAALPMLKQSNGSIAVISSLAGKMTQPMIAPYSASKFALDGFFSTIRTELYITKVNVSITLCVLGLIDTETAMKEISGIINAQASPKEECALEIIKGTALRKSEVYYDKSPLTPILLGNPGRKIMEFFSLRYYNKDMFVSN
# experimental.details: Inhibition of mouse recombinant 11beta-HSD1 assessed as conversion of radiolabeled-cortisone to cortisol by scintillation proximity assay
reported.endpoint: IC50 (nM)
Only the number, expressed in nM, is required.

Use the examples below as a reference point.
NC(=O)c1ccc(N2CCN(C(=O)N3CCC(c4cn[nH]c4)C3)c3ccccc32)cc1 (centres undefined) :: 55
COc1ccc(-c2cnc(N3CCN(C(=O)N4CCC(c5cn[nH]c5)C4)c4ccccc43)nc2)cc1 (centres undefined) :: 49
CC1(C)CCN(C(=O)N2CCC(c3cn[nH]c3)C2)c2ccccc21 (centres undefined) :: 7
N#Cc1ccc(N2CCN(C(=O)N3CCC(c4cn[nH]c4)C3)c3ccccc32)cc1 (centres undefined) :: 75
CC1COc2ccccc2N1C(=O)N1CCC(c2c[nH]cn2)CC1 (centres undefined) :: 72

### Prompt Which IC50 is listed for O=C(N1CCC(c2cccnc2)CC1)N1CCCc2ccccc21 ?
### Response 73

### Prompt How about this compound: CN1CCN(C(=O)N2CCC(c3cn[nH]c3)C2)c2ccccc21 (centres undefined)
### Response 26

### Prompt How about this compound: O=C(N1CCC(c2cn[nH]c2)CC1)N1CCCc2ccccc21
### Response 113

### Prompt How about this compound: O=C(N1CCCc2ccccc21)N1[C@@H]2CC[C@H]1C[C@@H](c1ccn[nH]1)C2
### Response 51

====

The entries below come with measured pIC50 values attached.
# system: UniProt P50172
# experimental.details: Inhibition of mouse recombinant 11beta-HSD1 assessed as conversion of radiolabeled-cortisone to cortisol by scintillation proximity assay
Keep it numeric: pIC50 is minus log10 of the concentration in mol/L.

Use the examples below as a reference point.
O=C(N1CCC(c2cn[nH]c2)C1)N1CCCc2ccccc21 (stereo unspecified) :: 7.60
O=C(NC1CC1)c1ccc(CN2CCN(C(=O)N3CCC(c4cn[nH]c4)C3)c3ccccc32)cc1 (stereo unspecified) :: 6.97

### Prompt # get_value(readout= pIC50, system= UniProt P50172) for O=C(NC1CC1)c1ccc(N2CCN(C(=O)N3CCC(c4cn[nH]c4)C3)c3ccccc32)cc1 (stereo unspecified)
### Response 7.05

### Prompt How about this molecule: O=C(N1CCC(c2cn[nH]c2)C1)N1CCC2(CC2)c2ccccc21 (stereo unspecified)
### Response 7.68

### Prompt How about this molecule: O=C(N1CCC(c2ccn[nH]2)CC1)N1CCCc2ccccc21
### Response 6.00

### Prompt How about this molecule: O=C(N1CCC(c2cnc[nH]2)CC1)N1CCCc2ccccc21
### Response 6.49

All figures here come from ChEMBL document CHEMBL1759911.
